- Tested on: L. donovani-infected THP-1 macrophages, intracellular amastigote imaging
- assayProtocol: antileishmanial activity in infected THP-1 macrophages – imaging, THP-1 host macrophages, host toxicity (AID 1159564)
- setupConditions: measured here: THP-1 host cell toxicity
pIC50: −log10 of the molar value.
Consider the following compounds; for each one, report its pIC50.

Task: Can you look up the measured pIC50 of "O=C(NCc1ccc(-n2cccc2)cc1)c1nc(Cn2ccc([N+](=O)[O-])n2)no1" for me?
Result: < 4.30

Task: And then "O=C(CN(Cc1ccccn1)Cc1ccccn1)NCc1csc(-c2cccs2)n1" , what is it?
Result: < 4.30

Task: And then "CC(C)COC(=O)Nc1ccc(N2CCC(CNS(=O)(=O)c3ccccc3)CC2)c(F)c1" , what is it?
Result: < 4.30

Task: Please give the result for "O=C(CN(Cc1ccccn1)Cc1ccccn1)NC1Cc2ccccc2C1" too.
Result: < 4.10

Cited source: PubChem BioAssay AID1159564
